Each recorded value in this set is attributed to paper PMC9482650.

# target.or.test.system: GORASP2, Q9H8Y8
# run.description: holdup assay
# Design: key: below the threshold = too weak to quantify, mostly under pKd 3.1 to 4
# assay.context: plain residues with an end cap or a label only (N-terminal biotin on a linker: ttds)
parameter.measured: pKd

Reference set, count: 6
TVASEKESVM [SLC1A5, Q15758] : below the threshold
STLTIFETAL [ABCC4, O15439] : 3.82
RSLEEEESQL [GRASP, Q7Z6J2] : below the threshold
VLRLQSETSV [VANGL1, Q8TAA9] : below the threshold
QSARYRDTEL [TJP2, Q9UDY2] : below the threshold
SVWLRKETRV [CYSLTR2, Q9NS75] : 4.01

Quick one: give me pKd for each item below, same order please.
1. SSRTRRETQL [HPV16-E6, P03126]
2. IYVPEAQTRL [DLGAP4, Q9Y2H0]
3. SRPQRTQTQV [HPV67-E6, A4U7F2]

4.02
below the threshold
below the threshold
